This section lists Ki readings for Acetylcholinesterase (Homo sapiens).
Form entry: value (nM) — number only.

Reference set, count: 2
// sample `COc1ccc2oc(=O)c(C(=O)NCCCCCNc3c4c(nc5ccccc35)CCCC4)cc2c1` , its Ki was 39.4

# Ki (molecule: `COc1ccc2oc(=O)c(C(=O)NCCCCCCCNc3c4c(nc5ccccc35)CCCC4)cc2c1` ) is 50.7

Next:
Consider `O=C(NCCCCCCNc1c2c(nc3ccccc13)CCCC2)c1cc2ccccc2oc1=O` . Its measured Ki is 16.7

====

Target: Cholinesterase (Homo sapiens, UniProt P06276)
Sequence (P06276 whole entry): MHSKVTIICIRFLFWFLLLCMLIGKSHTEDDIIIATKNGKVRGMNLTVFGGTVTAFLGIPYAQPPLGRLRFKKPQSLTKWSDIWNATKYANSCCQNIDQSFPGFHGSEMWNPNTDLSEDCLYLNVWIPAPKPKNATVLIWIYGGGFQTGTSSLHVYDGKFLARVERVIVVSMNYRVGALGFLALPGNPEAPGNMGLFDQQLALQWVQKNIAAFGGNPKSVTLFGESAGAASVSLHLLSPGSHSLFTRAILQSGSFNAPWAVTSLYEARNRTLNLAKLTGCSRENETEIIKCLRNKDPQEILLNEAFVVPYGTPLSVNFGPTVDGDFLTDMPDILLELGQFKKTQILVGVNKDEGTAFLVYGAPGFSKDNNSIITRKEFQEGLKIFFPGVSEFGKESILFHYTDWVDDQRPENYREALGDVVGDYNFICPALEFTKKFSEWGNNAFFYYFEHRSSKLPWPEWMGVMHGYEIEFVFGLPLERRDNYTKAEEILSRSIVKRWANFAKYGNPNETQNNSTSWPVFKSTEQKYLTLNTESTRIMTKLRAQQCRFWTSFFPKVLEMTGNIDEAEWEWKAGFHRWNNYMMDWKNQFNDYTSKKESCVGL
Overview of reported pKi across a group of compounds:
# pKi = -log10(concentration in molar units)

Lab entry: Cholinesterase (Homo sapiens, UniProt P06276) assay, compound `COc1ccc2oc(=O)c(C(=O)NCCCCCNc3c4c(nc5ccccc35)CCCC4)cc2c1` , pKi = 7.47

Summary: `Cc1ccc2oc(=O)c(C(=O)NCCCCCNc3c4c(nc5ccccc35)CCCC4)cc2c1` , Cholinesterase (Homo sapiens, UniProt P06276), pKi = 7.49

Cholinesterase (Homo sapiens, UniProt P06276) data for `COc1cc2cc(C(=O)NCCCCCCNc3c4c(nc5ccccc35)CCCC4)c(=O)oc2cc1OC` ; its pKi: 7.51

Record `COc1ccc2cc(C(=O)NCCCCCCCNc3c4c(nc5ccccc35)CCCC4)c(=O)oc2c1` ; system Cholinesterase (Homo sapiens, UniProt P06276); pKi = 7.46

Assay Cholinesterase (Homo sapiens, UniProt P06276), sample `COc1ccc2oc(=O)c(C(=O)NCCCCCCNc3c4c(nc5ccccc35)CCCC4)cc2c1` , pKi read: 7.63

Others:
Test item `COc1ccc2cc(C(=O)NCCCCCNc3c4c(nc5ccccc35)CCCC4)c(=O)oc2c1` ; Cholinesterase (Homo sapiens, UniProt P06276); reported pKi was 7.53

The recorded pKi with Cholinesterase (Homo sapiens, UniProt P06276) for `Cc1ccc2oc(=O)c(C(=O)NCCCCCCNc3c4c(nc5ccccc35)CCCC4)cc2c1` was 7.63
